Quick reference for Vmax among some compounds
- Tested on: UDP glucuronyl transferase
- methodNotes: Rat liver microsomal glucuronidation
- runParameters: detergent-activated rat liver microsomes, 37° C., 30 min; average of two to three experiments
Your answer is read as nmols/mg-min, so omit the unit and give the number.

>>> valuereported("CCC(=C(c1ccc(O)cc1)c1ccc(O)cc1)c1ccccc1")
14.7
>>> valuereported("CCC(=C(c1ccccc1)c1ccc(OCC(=O)O)cc1)c1ccccc1")
0.0

INPUT: Could you tell me which Vmax is on file for "CCC(=C(c1ccc(O)cc1)c1ccc(OCC(=O)OC)cc1)c1ccccc1" ?
OUTPUT: 16.5

INPUT: Would you mind doing "CCC(=C(c1ccc(O)cc1)c1ccc(OCC(=O)O)cc1)c1ccccc1" as well?
OUTPUT: 0.0

----------
- methodNotes: Rat liver microsomal glucuronidation
- runParameters: rat, liver microsomes
metricName: Km at 0.5 h (µM)
Return type: number; implicit unit µM.

INPUT: Any idea what its Km at 0.5 h is? The compound is CCC(=C(c1ccc(O)cc1)c1ccc(OCC(=O)OC)cc1)c1ccccc1 [Methyl 4-HTA]
OUTPUT: 73

INPUT: # repeat for CCC(=C(c1ccc(O)cc1)c1ccc(O)cc1)c1ccccc1 [TAM bis-phenol]
OUTPUT: 54

Cited source: patent US5189212A
